Provenance of the data: patent US20180044343A1

# assay_remarks: Test for drug transportation to brain in rats
# Assay type: in vivo
# measurement_parameters: rat; SD rats, oral, one hour after administration; non-binding drug concentration ratio between brain and plasma
quantity_measured: Kp uu at 1 h

>  <given_smiles>
COc1nn2c(C3CCOCC3)ncc2c(=O)n1CC1CCC(F)(F)CC1

>  <Kp uu at 1 h>
0.96

$$$$
>  <given_smiles>
CC(C)c1ncc2c(=O)n(C)c(NCc3ccc(Cl)cn3)nn12

>  <Kp uu at 1 h>
0.3

$$$$
>  <given_smiles>
CCn1c(OCC2CCC(F)(F)CC2)nn2c(C3CCOCC3)ncc2c1=O

>  <Kp uu at 1 h>
0.69

$$$$
>  <given_smiles>
CCOC[C@H]1CC[C@H](COc2nn3c(C4CCOCC4)ncc3c(=O)n2C)CC1

>  <Kp uu at 1 h>
0.61

$$$$
>  <given_smiles>
COc1nn2c(C3CCOCC3)ncc2c(=O)n1Cc1ccc(Cl)cc1

>  <Kp uu at 1 h>
1.02

$$$$

[1] Cn1c(OC[C@H]2CC[C@H](C(F)(F)F)CC2)nn2c(C3CCOCC3)ncc2c1=O
[2] CCO[C@H]1CC[C@H](COc2nn3c(C4CCOCC4)ncc3c(=O)n2C)CC1
Prompt line: Thinking about recorded Kp uu at 1 h values, which is higher, 1 or 2 ? // caller expects the label of the chosen entry
Response line: 1
